System: Mus musculus
Test: Anticonvulsant activity in Swiss mouse assessed as protection against seizures administered intraperitoneally 30 mins before test by maximal electroshock seizure test
Type: functional
Details: ip
Examples of molecules with documented ED50 follow.

For orientation, consider the following solved cases.
Prompt: Which value of ED50 has been reported for CCCCCn1c(-c2cccc(Cl)c2Cl)n[nH]c1=S in the records?
Completion: 276 mg/kg

Prompt: Entry under review: CCCCCCCCn1c(Cc2cccc(Cl)c2)n[nH]c1=S . Reported ED50?
Completion: 166 mg/kg

Prompt: Fill blank: measured ED50 of the molecule CCCCCCCCCn1c(Cc2cccc(Cl)c2)n[nH]c1=S is ____.
Completion: 117 mg/kg

Prompt: Report ED50 for CCCCCCn1c(Cc2cccc(Cl)c2)n[nH]c1=S please.
Completion: 74.5 mg/kg

Prompt: Bench note: what ED50 did CCCCn1c(Cc2cccc(Cl)c2)n[nH]c1=S show?
Completion: 43.2 mg/kg

Prompt: Any idea what its ED50 is? The molecule is CCn1c(Cc2cccc(Cl)c2)n[nH]c1=S
Completion: 54.4 mg/kg

Prompt: Quick check: ED50 of CCCCCn1c(Cc2cccc(Cl)c2)n[nH]c1=S ?
Completion: 62.5 mg/kg

Let us move to another entry and its ED50.
Prompt: Which ED50 value is on record for CCCCCCCn1c(Cc2cccc(Cl)c2)n[nH]c1=S ?
Completion: 76.3 mg/kg
